System: SR
Assay: NCI tumour cell line growth inhibition, 48 h
Activity calls are given as the source filed them. Rule as the data show it: active = GI50 up to about 1.1 µM and inactive = higher.
Permitted responses: 1 for active, -1 for inactive

Completed entries (count: 8):
CN(CCCCCl)P(=O)(OCc1ccc([N+](=O)[O-])o1)OC[C@H]1O[C@@H](n2cc(F)c(=O)[nH]c2=O)C[C@@H]1O (stereo not given in full); 1
CC1CCCCNC1=S (stereo not given); -1
O=C1c2ccccc2-c2nnc(-c3ccc(Cl)cc3)cc21; -1
O=C(/C=C(\Nc1ccccc1O)c1ccccc1)C(=O)NC12CC3CC(CC(C3)C1)C2; -1
CN(C)CCNc1ccc2c(=O)n(CCN(C)C)c(=O)n3c4ccccc4c(=O)c1c23; 1
CC(=O)OC1COC(N2C(=O)C(=O)c3c(C)cc(Cl)nc32)C(OC(C)=O)C1OC(C)=O (stereo not given); -1
CNC(=S)N(C)C(=S)Nn1c(=O)c(C)nn(C)c1=S; -1
CCC(C)[C@@H](NC1=C(Cl)C(=O)c2c(O)ccc(O)c2C1=O)C(=O)OC (stereo not given in full); 1

Inquiry: Please share the test call associated with Cc1cc(N(CCC#N)CCC#N)ccc1/C=C1\SC(=S)NC1=O .
Reply text: -1

Inquiry: Query COc1ccc(/C(CC2OC(=O)c3ccccc32)=N\NC(=O)C[N+](C)(C)C)cc1 (stereo not given) next
Reply text: -1

Inquiry: Query CO[C@H]1C=CO[C@@]2(C)Oc3c(C)c(O)c4c(O)c(c(CN5CCN(C)CC5)c(O)c4c3C2=O)NC(=O)/C(C)=C\C=C[C@H](C)[C@H](O)C(C)[C@@H](O)C(C)[C@H](OC(C)=O)[C@@H]1C (stereo not given in full) next
Reply text: -1

Inquiry: Query ClCC[N+]12CC[N+](CCCl)(CC1)C2 next
Reply text: -1

Inquiry: Query O=C(Nc1cccc([N+](=O)[O-])c1)c1nnn(-c2cccc([N+](=O)[O-])c2)c1O next
Reply text: -1

Inquiry: Query CC1C(=O)C(C)C(c2ccccc2)N(C)C1c1ccccc1 (stereo not given) next
Reply text: -1

Inquiry: Query O=C1C(Cl)C(c2ccc(O)cc2)N1n1cnc2ccccc2c1=O (stereo not given) next
Reply text: -1

Inquiry: Query O=C1CS(=O)(=O)C(c2cccc(Oc3ccccc3)c2)N1c1ccccc1 (stereo not given) next
Reply text: -1

====

Tested on: M14
Assay: NCI tumour cell line growth inhibition, 48 h
The source made the active and inactive calls. Cut-off read from the data, not from the text of the source: active = GI50 up to about 1.1 µM and inactive = higher.
Endpoint: GI50

CN(O)C(=O)c1ccc(OCc2cccc(Cl)c2)cc1; 16.7 µM (inactive)
COc1cc2c(cc1C1COc3cc4occc4cc3C1=O)OCO2 (stereo not given); > 100 µM (inactive)
O=C(C1OC1c1ccc([N+](=O)[O-])cc1)C12CC3CC(CC(C3)C1)C2 (stereo not given); 15.2 µM (inactive)
[N-]=[N+]=NC[C@H]1OCO[C@H](CN=[N+]=[N-])[C@H]2OCCOCCOc3ccccc3OCCOCCO[C@@H]21; > 100 µM (inactive)

Next, consider the following compound.
Inquiry: Return reported GI50; argument: CN(CCNC(=O)c1c[nH]c2c1Cc1ccccc1-2)CCNC(=O)c1c[nH]c2c1Cc1ccccc1-2
Reply text: 30.8 µM (inactive)

====

System: HCT-116
Assay: NCI tumour cell line growth inhibition, 48 h
Activity calls are given as the source filed them. Rule as the data show it: active = GI50 up to about 1.1 µM and inactive = higher.
Permitted responses: active, inactive

Inquiry: Please share the test call associated with COc1ccc(/C=C2\CCCC(CN(C)C)C2=O)cc1 (stereo not drawn) .
Reply text: inactive

Inquiry: Query CC(C)(C)OC(=O)NC(Cc1ccc(O)cn1)C(N)=O (stereo not drawn) next
Reply text: inactive

Inquiry: Query CC(C)OP(=O)(CCCCCCCCC/C=C/c1ccc2c(c1)OCCOCCOCCOCCO2)OC(C)C next
Reply text: inactive

Inquiry: Query O=C1c2ccccc2C(=O)c2sc(Nc3ccccc3Cl)nc21 next
Reply text: inactive

Inquiry: Query COC(=O)c1c(-c2ccccc2)cc2c3cc(-c4ccccc4)c(C(=O)OC)n3c3ccccc3n12 next
Reply text: inactive

Inquiry: Query O=C(/C=C/c1ccccc1)c1ccccc1 next
Reply text: inactive

Inquiry: Query NCCC1([N+](=O)[O-])C=CN=CC1 (stereo not drawn) next
Reply text: inactive

Inquiry: Query O=C1NN=C(O)C2C3c4ccccc4C(c4ccccc43)C12 (stereo not drawn) next
Reply text: inactive

Inquiry: Query N#CCCN(c1ccc(/C=N/c2ccccc2)cc1)S(=O)(=O)c1ccccc1 next
Reply text: inactive

Inquiry: Query C/C(=N\NS(=O)(=O)c1ccc([N+](=O)[O-])cc1)c1ccc[n+]([O-])n1 next
Reply text: inactive

Inquiry: Query COc1ccc2c3c([nH]c2c1)[C@H]1C[C@H]2[C@H](C[C@@H](O)[C@H](OC)[C@H]2C(=O)O)CN1CC3 next
Reply text: inactive

Inquiry: Query COc1ccc(Br)c2c1CC(C(=O)O)CC2 (stereo not drawn) next
Reply text: inactive
